Biological target: Dickkopf-related protein 1 (Homo sapiens)
Assay: small molecules binding DKK1 protein – biochemical, small-molecule microarray, 635 nm fluorescence scan, primary screen (AID 1106);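 note: score merges emission near 667 nm with signal to noise over three replicate slides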
Conditions: higher = more signal
Measured composite z-score accompanies every entry in the list below.
observation type: composite z-score

compound: C=C(CCCC)C(=O)CC[C@@H](OC(C)=O)c1ccc(CO)o1
test result: 0.0693
//
compound: [N-]=[N+]=Nc1ccccc1C[C@]1(C(=O)NCC(O)CO)N=C(c2ccc(OCCCO)cc2)O[C@H]1c1ccccc1 (some centres undefined)
test result: -0.735
//
compound: CCCCN1CC=CC23O[C@@H]4C=CCCOC(=O)C4[C@H]2C(=O)N(CCCCCO)[C@@H]3C1=O (some centres undefined)
test result: -0.787
//
compound: NC(=O)NCC#Cc1ccc2c(c1)[C@]1(C(=O)N2)[C@H](C(=O)O)[C@H]2C(=O)O[C@H](c3ccccc3)[C@H](c3ccccc3)N2[C@@H]1c1ccc(O)cc1
test result: 0.181
